system name: Urease (Canavalia ensiformis, UniProt P07374)
Sequence (P07374 whole entry): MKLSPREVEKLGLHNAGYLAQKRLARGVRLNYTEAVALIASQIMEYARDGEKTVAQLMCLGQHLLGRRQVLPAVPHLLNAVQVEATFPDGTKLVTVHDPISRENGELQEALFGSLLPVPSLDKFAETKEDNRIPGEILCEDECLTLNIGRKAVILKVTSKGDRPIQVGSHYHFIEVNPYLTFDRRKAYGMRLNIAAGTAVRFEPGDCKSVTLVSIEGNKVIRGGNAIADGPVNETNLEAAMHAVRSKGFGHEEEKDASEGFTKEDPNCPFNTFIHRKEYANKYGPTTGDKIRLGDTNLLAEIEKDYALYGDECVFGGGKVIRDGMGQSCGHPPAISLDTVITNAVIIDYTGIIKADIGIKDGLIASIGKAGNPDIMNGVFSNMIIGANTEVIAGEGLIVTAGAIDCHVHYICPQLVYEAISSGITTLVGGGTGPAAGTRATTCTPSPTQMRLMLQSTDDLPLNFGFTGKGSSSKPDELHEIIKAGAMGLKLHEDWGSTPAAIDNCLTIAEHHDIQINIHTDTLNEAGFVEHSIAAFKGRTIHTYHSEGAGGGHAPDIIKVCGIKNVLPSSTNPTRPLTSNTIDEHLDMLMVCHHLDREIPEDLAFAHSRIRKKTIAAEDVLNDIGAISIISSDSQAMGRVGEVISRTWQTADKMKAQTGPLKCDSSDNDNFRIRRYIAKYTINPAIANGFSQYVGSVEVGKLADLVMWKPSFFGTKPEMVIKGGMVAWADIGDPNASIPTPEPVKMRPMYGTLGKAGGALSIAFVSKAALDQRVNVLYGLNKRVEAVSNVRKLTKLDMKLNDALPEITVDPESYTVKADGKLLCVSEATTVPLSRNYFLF
assay method text: Inhibition of jack bean Urease assessed as ammonia production after 15 mins by indophenol method
measured attribute: IC50
Give your result as the value with the unit written after it.

### Prompt Return reported IC50; argument: O=C1NC(=S)NC(=O)C1=CNc1ccc(C(=O)O)c(O)c1
### Response 32.3 µM

I'm hoping you can list IC50 for every compound here, please.
1. O=C1NC(=S)NC(=O)C1=CNc1ccccc1S
2. O=C1NC(=O)C(=CNc2ccc(C(=O)O)c(O)c2)C(=O)N1
3. O=C1NC(=S)NC(=O)C1=CNc1ccc(C(=O)O)cc1

### Response
15 µM
88.3 µM
8.93 µM

I'm hoping you can list IC50 for every compound here, please.
1. O=C1NC(=S)NC(=O)C1=CNc1cc([N+](=O)[O-])ccc1C(F)(F)F
2. O=C1NC(=S)NC(=O)C1=CNc1cc([N+](=O)[O-])ccc1C(=O)O
3. O=C1NC(=S)NC(=O)C1=CNc1cc(C(=O)O)ccc1Cl

### Response
["28.7 µM", "8.53 µM", "26.7 µM"]

----------
system name: Urease (Canavalia ensiformis)
assay method text: Inhibition of jack bean Urease assessed as ammonia production after 15 mins by indophenol method
measured attribute: pIC50
Answers are plain numbers, as −log10 of the molar value.

### Prompt Return reported pIC50; argument: O=C1NC(=S)NC(=O)C1=CNc1cccc(C(=O)O)c1
### Response 4.66

### Prompt Return reported pIC50; argument: O=C1NC(=O)C(=CNc2ccccc2S)C(=O)N1
### Response 4.28

I'm hoping you can list pIC50 for every compound here, please.
1. O=C1NC(=S)NC(=O)C1=CNc1cccc(C(F)(F)F)c1
2. O=C1NC(=S)NC(=O)C1=CNc1ccc(C(F)(F)F)cc1

### Response
1. 4.61
2. 3.87

I'm hoping you can list pIC50 for every compound here, please.
1. O=C1NC(=S)NC(=O)C1=CNc1cc(C(=O)O)ccc1O
2. O=C1NC(=O)C(=CNc2ccc([N+](=O)[O-])c(C(=O)O)c2)C(=O)N1
3. O=C1NC(=S)NC(=O)C1=CNc1ccc(I)cc1
4. O=C1NC(=S)NC(=O)C1=CNc1ccccc1C(F)(F)F

### Response
1. 4.72
2. 4.59
3. 4.38
4. 4.19

----------
system name: Urease (Canavalia ensiformis)
assay method text: Inhibition of jack bean Urease assessed as ammonia production after 15 mins by indophenol method
Provide the recorded pIC50 for the entries that follow.
Answers are plain numbers, as −log10 of the molar value.

### Prompt Return reported pIC50; argument: O=C1NC(=S)NC(=O)C1=CNc1ccccc1C(=O)O
### Response 4.89

### Prompt Return reported pIC50; argument: O=C1NC(=S)NC(=O)C1=CNc1ccccc1O
### Response 4.71

### Prompt Return reported pIC50; argument: O=C1NC(=S)NC(=O)C1=CNc1cc(Cl)cc(Cl)c1
### Response 4.05

Please turn your attention to the following entry.
### Prompt Return reported pIC50; argument: O=C1NC(=S)NC(=O)C1=CNc1ccc([N+](=O)[O-])c(C(=O)O)c1
### Response 4.40
